Listing of recorded OD450 nm by entry.
Target: HRgpA-6H (Porphyromonas gingivalis) (UniProt P28784)
Experiment: ELISA, coated HRgpA-6H

# BINDER, OD450 nm
data = [
    ("KB001 mouse Fab VH G99Y (Fab, V domains shown) VH: EVQLKQSGPGLVAPSQSLSITCTVSGFSLSIYSVHWVRQPPGKGLEWLGMIWGGGSSDYNSALKSRLSISKDNSKSQVFLKMNSLQTDDTAMYYCARNYNFYAMDYWGQGTSVTVSS VL: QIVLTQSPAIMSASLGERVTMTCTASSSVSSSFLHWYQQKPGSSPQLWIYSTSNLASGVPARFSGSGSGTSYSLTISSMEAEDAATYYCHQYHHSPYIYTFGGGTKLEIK", 0.835),
]

What value of OD450 nm has been reported for the following binder? KB001 mouse Fab VH L29P (Fab, V domains shown) VH: EVQLKQSGPGLVAPSQSLSITCTVSGFSPSIYSVHWVRQPPGKGLEWLGMIWGGGSSDYNSALKSRLSISKDNSKSQVFLKMNSLQTDDTAMYYCARNGNFYAMDYWGQGTSVTVSS VL: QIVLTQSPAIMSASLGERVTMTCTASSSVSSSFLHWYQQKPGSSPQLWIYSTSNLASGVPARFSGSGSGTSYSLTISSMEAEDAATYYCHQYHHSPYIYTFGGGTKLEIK
0.468
